# particulars: Crystal; DTA
propertyMeasured: Normal melting temperature (°C)

NS(=O)(=O)c1ccccc1 [benzenesulfonamide] : 152.32
Nc1ccc(S(N)(=O)=O)cc1 [4-aminobenzenesulfonamide] : 164.53
Cc1ccc(S(N)(=O)=O)cc1 [p-toluenesulfonamide] : 137.27
Nc1ccccc1S(N)(=O)=O [2-aminobenzenesulfonamide] : 153.46

---

# testSummary: Molar enthalpy of transition or fusion
# particulars: Crystal; DSC
propertyMeasured: Molar enthalpy of transition or fusion (kcal/mol)

Nc1ccccc1S(N)(=O)=O [2-aminobenzenesulfonamide] : 5.6
NS(=O)(=O)c1ccccc1 [benzenesulfonamide] : 5.67
Nc1ccc(S(N)(=O)=O)cc1 [4-aminobenzenesulfonamide] : 5.33
Cc1ccc(S(N)(=O)=O)cc1 [p-toluenesulfonamide] : 5.72
Cc1ccccc1S(N)(=O)=O [o-toluenesulfonamide] : 6.75
